All values here come from ChEMBL document CHEMBL2311354.

CC50 listing for selected compounds.
# METHOD_DESCRIPTION: Cytotoxicity against human HepG2.215 cells assessed as reduction of cell viability
# Type: cell-based, HepG2 2.2.15

Nc1ncc(I)c2c1ncn2[C@@H]1C[C@H](O)[C@@H](O)[C@H]1O	> 300 µM
Nc1ncc(Cl)c2c1ncn2[C@@H]1C[C@H](O)[C@@H](O)[C@H]1O	> 300 µM

// lookup CC50 for Nc1ncc(Br)c2c1ncn2[C@@H]1C[C@H](O)[C@@H](O)[C@H]1O
> 10 µM

###

# Test system: Vaccinia virus
# METHOD_DESCRIPTION: Antiviral activity against Vaccinia virus infected in human HEL cells assessed as reduction of viral replication
# Type: functional, organism-based
# MEASUREMENT_PARAMETERS: Orthopoxvirus vaccinia
Catalogue of compounds with associated EC50
Unit µM implied. Number only.

Some entries whose results are on file:
Nc1ncc(Br)c2c1ncn2[C@@H]1C[C@H](O)[C@@H](O)[C@H]1O	24
Nc1ncc(I)c2c1ncn2[C@@H]1C[C@H](O)[C@@H](O)[C@H]1O	4

Could you now look at the following compound, please?
EC50 lookup needed for Nc1ncc(Cl)c2c1ncn2[C@@H]1C[C@H](O)[C@@H](O)[C@H]1O , thanks.
120
